Molecular target: T1, CD3 epsilon homodimer protein (UniProt P07766 23-126)
T1 construct: also called CD3 (CD3 epsilon)
T1 sequence (P07766 23-126): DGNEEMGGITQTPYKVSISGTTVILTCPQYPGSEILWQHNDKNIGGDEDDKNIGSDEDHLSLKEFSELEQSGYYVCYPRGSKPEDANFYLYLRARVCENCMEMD
Experiment: SPR Biacore T200, CD3e homodimer on chip, vs unaltered GLS3000 antibody
outcome-measure: ratio of amounts bound (Z=Y/X)
The response must contain the number and no unit.

Guide cases for ratio of amounts bound (Z=Y/X), answers given:
- GLS3000 L33M (antibody, name in Kabat numbering, V domains shown, one-arm IgG as m2) VH: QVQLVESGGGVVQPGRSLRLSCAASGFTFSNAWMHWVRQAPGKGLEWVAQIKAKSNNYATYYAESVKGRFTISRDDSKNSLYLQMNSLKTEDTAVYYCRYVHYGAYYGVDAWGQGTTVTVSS VL: DIVMTQSPLSLPVTPGEPASISCRSSQSLVHSNRNTYMHWYQQKPGQAPRLLIYKVSNRFSGVPDRFSGSGSGTDFTLKISRVEAEDVGVYYCGQGTQVPYTFGQGTKLEIK: 0.93
- GLS3000 V27cY (antibody, name in Kabat numbering, V domains shown, one-arm IgG as m2) VH: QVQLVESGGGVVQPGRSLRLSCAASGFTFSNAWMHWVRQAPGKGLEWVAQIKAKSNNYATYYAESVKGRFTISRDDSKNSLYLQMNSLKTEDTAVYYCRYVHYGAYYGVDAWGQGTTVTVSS VL: DIVMTQSPLSLPVTPGEPASISCRSSQSLYHSNRNTYLHWYQQKPGQAPRLLIYKVSNRFSGVPDRFSGSGSGTDFTLKISRVEAEDVGVYYCGQGTQVPYTFGQGTKLEIK: 0.77

Pending binder:
Challenge: Fill in reported ratio of amounts bound (Z=Y/X) for this entry: GLS3000 H27dY (antibody, name in Kabat numbering, V domains shown, one-arm IgG as m2) VH: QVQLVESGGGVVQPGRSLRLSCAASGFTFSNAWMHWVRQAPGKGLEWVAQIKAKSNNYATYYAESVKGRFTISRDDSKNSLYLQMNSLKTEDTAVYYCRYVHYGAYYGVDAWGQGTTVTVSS VL: DIVMTQSPLSLPVTPGEPASISCRSSQSLVYSNRNTYLHWYQQKPGQAPRLLIYKVSNRFSGVPDRFSGSGSGTDFTLKISRVEAEDVGVYYCGQGTQVPYTFGQGTKLEIK
Response given: 0.64
